- target.or.system: T1, mouse DLL4 extracellular domain (mouse, UniProt Q9JI71 27-532)
- T1 construct: extracellular domain; also called muDLL4 ECD; murine DLL4
- T1 sequence (Q9JI71 27-532): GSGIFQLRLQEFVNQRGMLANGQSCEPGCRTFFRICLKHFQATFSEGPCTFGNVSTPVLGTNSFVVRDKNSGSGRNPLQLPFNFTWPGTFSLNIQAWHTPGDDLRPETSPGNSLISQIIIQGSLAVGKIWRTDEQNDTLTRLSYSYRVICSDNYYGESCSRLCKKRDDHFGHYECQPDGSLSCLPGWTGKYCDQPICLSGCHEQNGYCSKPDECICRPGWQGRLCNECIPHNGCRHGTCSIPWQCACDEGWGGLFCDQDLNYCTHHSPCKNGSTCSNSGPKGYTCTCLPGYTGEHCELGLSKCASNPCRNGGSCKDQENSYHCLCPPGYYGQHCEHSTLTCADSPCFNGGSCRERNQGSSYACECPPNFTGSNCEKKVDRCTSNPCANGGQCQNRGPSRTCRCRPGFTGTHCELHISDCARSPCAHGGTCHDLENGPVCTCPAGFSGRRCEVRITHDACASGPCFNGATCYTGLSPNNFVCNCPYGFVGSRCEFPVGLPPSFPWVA
- procedure.text: binding ELISA
In this section, each of the binders is paired with its reported EC50.
Numeric only. Scale: nM

binder	EC50 [nM]
h1A11.1 (antibody, V domains shown, humanized IgG; also called hu1A11.1; VH.1/VL.1 1A11) VH: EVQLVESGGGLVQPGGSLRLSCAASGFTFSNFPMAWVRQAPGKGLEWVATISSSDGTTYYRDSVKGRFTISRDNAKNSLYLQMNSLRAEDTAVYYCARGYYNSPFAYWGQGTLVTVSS VL: DIQMTQSPSSLSASVGDRVTITCRASEDIYSNLAWYQQKPGKAPKLLIYDTNNLADGVPSRFSGSGSGTDFTLTISSLQPEDFATYYCQQYNNYPPTFGQGTKLEIKR	0.09
h1A11.7 (antibody, V domains shown, humanized IgG; also called VH.1a/VL.1b 1A11) VH: EVQLVESGGGLVQPGGSLRLSCAASGFTFSNFPMAWVRQAPGKGLEWVATISSSDGTTYYRDSVKGRFTISRDNAKSSLYLQMNSLRAEDTAVYYCSRGYYNSPFAYWGQGTLVTVSS VL: DIQMTQSPSSLSASVGDRVTITCRASEDIYSNLAWYQQKPGKAPKLLIFDTNNLADGVPSRFSGSGSGTDFTLTISSLQPEDFATYYCQQYNNYPPTFGQGTKLEIKR	0.09

I'd like to know its EC50. The binder in question is h1A11.2 (antibody, V domains shown, humanized IgG; also called VH.1/VL.1a 1A11) VH: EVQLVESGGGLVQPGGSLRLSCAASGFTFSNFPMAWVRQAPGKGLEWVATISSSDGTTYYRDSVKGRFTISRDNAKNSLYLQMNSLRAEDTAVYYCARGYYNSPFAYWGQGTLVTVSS VL: DIQMTQSPSSLSASVGDRVTITCRASEDIYSNLAWYQQKPGKSPKLLIFDTNNLADGVPSRFSGSGSGTDSTLTISSLQPEDFATYFCQQYNNYPPTFGQGTKLEIKR
0.09

I'd like to know its EC50. The binder in question is h1A11.10 (antibody, V domains shown, humanized IgG; also called VH.1b/VL.1a 1A11) VH: EVQLVESGGGLVQPGGSLRLSCAASGFTFSNFPMAWVRQAPGKGLEWVATISSSDGTTYYRDSVKGRFTISRDNAKNSLYLQMNSLRAEDTAVYYCSRGYYNSPFAYWGQGTLVTVSS VL: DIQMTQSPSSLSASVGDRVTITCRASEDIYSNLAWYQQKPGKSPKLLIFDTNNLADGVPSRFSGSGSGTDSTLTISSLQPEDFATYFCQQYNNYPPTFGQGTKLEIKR
0.09

I'd like to know its EC50. The binder in question is 1A11 chimeric antibody (antibody, human IgG1, V domains shown, also called Chimera of 1A11; 1A11 (chimera)) VH: EVQLVESGGGLVQPGRSMKLSCAASGFTFRNFPMAWVRQAPTRGLEWVATISSSDGTTYYRDSVKGRFTISRDNAKSTLYLQVNSLRSEDTATYYCSRGYYNSPFAYWGQGTLVTVSS VL: DIQMTQSPASLSASLGETVTIECRASEDIYSNLAWYQQKPGNSPQLLIFDTNNLADGVPSRFSGSGSGTQSSLKINSLQSEDVASYFCQQYNNYPPTFGGGTKLELKR
0.3

I'd like to know its EC50. The binder in question is h1A11.5 (antibody, V domains shown, humanized IgG; also called VH.1a/VL.1 1A11) VH: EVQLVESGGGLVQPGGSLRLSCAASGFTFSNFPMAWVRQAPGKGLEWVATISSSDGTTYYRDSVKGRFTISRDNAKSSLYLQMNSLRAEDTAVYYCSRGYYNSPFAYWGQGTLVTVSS VL: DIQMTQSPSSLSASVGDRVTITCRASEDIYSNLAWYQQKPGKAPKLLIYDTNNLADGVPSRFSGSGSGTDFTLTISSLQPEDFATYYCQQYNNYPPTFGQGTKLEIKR
0.08

I'd like to know its EC50. The binder in question is h1A11.6 (antibody, V domains shown, humanized IgG; also called VH.1a/VL.1a 1A11) VH: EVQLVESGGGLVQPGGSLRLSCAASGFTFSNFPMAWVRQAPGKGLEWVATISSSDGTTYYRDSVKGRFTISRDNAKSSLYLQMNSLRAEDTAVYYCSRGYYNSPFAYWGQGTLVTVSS VL: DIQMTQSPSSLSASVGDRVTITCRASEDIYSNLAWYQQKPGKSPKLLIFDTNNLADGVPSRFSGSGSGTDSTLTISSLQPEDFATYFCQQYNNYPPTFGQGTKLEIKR
0.1
